Here the recorded Number of dead mice, 3rd day is given for each entry.
Tested on: ICR mice
Assay: Acute toxicity test
Type: in vivo
Conditions: male, 91.8 mg/kg i.p.

Consider the following illustrative entries.
{"compound": "CCC1(C)OC2C[NH2+][Pt-2]3([NH2+]CC2O1)[O]CC(=O)[O]3 (stereo not shown)", "Number of dead mice, 3rd day": "4/5"}
{"compound": "CC1[O][Pt][O]C1=O.NCC1OC2(CCCC2)OC1CN (stereo not shown)", "Number of dead mice, 3rd day": "3/4"}
{"compound": "CC(C)C1OC(CN)C(CN)O1.CC1[O][Pt][O]C1=O (stereo not shown)", "Number of dead mice, 3rd day": "4/5"}

In the following, a different compound is considered.
Which value of Number of dead mice, 3rd day has been reported for CCC1(CC)OC2C[NH2+][Pt-2]3([NH2+]CC2O1)[O]CC(=O)[O]3 (stereo not shown) in the records?
4/4

This collection of values is drawn from patent US5395947A.
